FYI, the data here is from PubChem BioAssay AID2058.

measured-target: G-protein coupled receptor 35 (Homo sapiens)
assay-protocol: inhibition of zaprinast-stimulated GPR35 beta-arrestin translocation – imaging, U2OS, beta-arrestin-GFP, zaprinast agonist, primary screen (AID 2058)
applied-conditions: zaprinast antagonism, at 10 µM, hits give high values
Screen size: about 290,000 compounds; about 150 (0.052%) were called active. For the sample, actives were picked, then their nearest neighbours and some compounds at random. Potency and affinity values are given separately.
measurement-type: inhibition (%)
Only the number, expressed in %, is required.

Example entries and their recorded answers appear below.
{"columns": ["compound", "measurement-unit", "inhibition"],
 "data": [
  ["C=CCSc1n[nH]c(-c2cccs2)n1", "%", 13.6],
  ["CCN(C(=O)Cc1c(C(=O)O)n(C)c2ccccc12)c1cccc(C)c1", "%", 6.8],
  ["CCOC(=O)CC1C(=O)NCCN1c1nc2ccc(C)cn2c(=O)c1/C=C1\\SC(=S)N(CC(C)C)C1=O (stereo not given)", "%", 21.7],
  ["Cc1ccc(S(=O)(=O)N(C)c2ccc(C(=O)NCCc3ccccc3)cc2)cc1", "%", 3.9],
  ["CC(=O)N(c1ccccc1)C1CCCC1", "%", -22.8]
]}

// inhibition lookup, key: "CC(=O)N(C1=C(O)c2ccccc2C(=O)C1=O)C1CCCCC1"
-5.2

For CCOC(=O)CC1C(=O)NCCN1c1nc2ccc(C)cn2c(=O)c1/C=C1\SC(=S)N(C(C)CC)C1=O (stereo not given) , what is its reported inhibition?
43.7

Could you tell me which inhibition is on file for CCOC(=O)CC1C(=O)NCCN1c1nc2c(C)cccn2c(=O)c1/C=C1\SC(=S)N(C(C)CC)C1=O (stereo not given) ?
55.7

Request the reported inhibition associated with "CCCCOC(=O)c1ccc(NC(=O)c2ccccc2OC)cc1"
12.9

So what's the measured inhibition for this one? CCOC(=O)CC1C(=O)NCCN1c1nc2c(C)cccn2c(=O)c1/C=C1\SC(=S)N(CC(C)C)C1=O (stereo not given)
58.9

* * *

Recorded inhibition by entry
measured-target: G-protein coupled receptor 35 (Homo sapiens)
assay-protocol: inhibition of zaprinast-stimulated GPR35 beta-arrestin translocation – imaging, U2OS, beta-arrestin-GFP, zaprinast agonist, primary screen (AID 2058)
applied-conditions: zaprinast antagonism, at 10 µM, hits give high values
The campaign covered roughly 290,000 compounds. About 150 (0.052%) were called active. The sample holds actives, similar compounds and a random draw of the others, so the mix is not that of the screen. Potency and affinity values are given separately.
Report only the number, with the unit % understood.

Which inhibition is listed for "O=C(Nc1ccc(Cl)cn1)c1ccc(Oc2ccccc2)cc1" ?
0.8

Which inhibition value is on record for "N/C(=N\OC(=O)COc1ccccc1)c1ccncc1" ?
-1.4

Dear colleague, I am looking for the recorded inhibition of the following molecule: "O=C(Nc1nc2ccc3ccccc3c2s1)c1ccc(N2CCCCC2)c([N+](=O)[O-])c1"
5.5

Which inhibition value is on record for "Cc1ccc(S(=O)(=O)N[C@@H](Cc2ccccc2)C(=O)N2CCC(C(=O)N[C@@H](CC(C)C)C(=O)O)CC2)cc1" ?
1

For CCOc1cc(/C=C(\C#N)c2nc3ccccc3[nH]2)ccc1OC(C)C(=O)O (stereo not drawn) , what is its reported inhibition?
9.3

* * *

measured-target: G-protein coupled receptor 35 (Homo sapiens) (UniProt Q9HC97)
Sequence (Q9HC97 whole entry, looked up): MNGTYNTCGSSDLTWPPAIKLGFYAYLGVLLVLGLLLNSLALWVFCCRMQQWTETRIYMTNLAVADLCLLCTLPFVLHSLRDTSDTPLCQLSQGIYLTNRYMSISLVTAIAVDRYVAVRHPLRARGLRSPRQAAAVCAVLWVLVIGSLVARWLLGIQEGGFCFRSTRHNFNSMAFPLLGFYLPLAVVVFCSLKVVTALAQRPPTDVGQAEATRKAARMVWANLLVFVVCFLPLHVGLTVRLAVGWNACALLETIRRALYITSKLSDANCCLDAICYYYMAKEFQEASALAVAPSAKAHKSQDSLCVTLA
assay-protocol: inhibition of zaprinast-stimulated GPR35 beta-arrestin translocation – imaging, U2OS, beta-arrestin-GFP, zaprinast agonist, primary screen (AID 2058)
applied-conditions: zaprinast antagonism, at 10 µM
Out of some 290,000 compounds screened, about 150 (0.052%) were called active.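 How the source made its calls: active means inhibition of at least 50% with at least 30 cells and total cytoplasm GFP at most 10,000,000; inconclusive means under 30 cells or total GFP of 10,000,000 plus; inactive means the rest.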 The sample as a whole holds a higher share of actives than the screen did. Measured potencies and affinities stand elsewhere.
Just give me one of these, please: active, inactive

{"columns": ["compound", "class-label"],
 "data": [
  ["O=C(CCCN1C(=O)/C(=C\\c2ccccc2)SC1=S)Nc1ccc(O)cc1C(=O)O", "inactive"]
]}

Okay, now this compound:
Call for entry "COC1CCN(C(=O)c2cc(COc3ccc(-n4cncn4)cc3)on2)CC1" :
inactive
